ASSAYED_TARGET: human GPR119 (Homo sapiens)
Sequence (Q8TDV5 whole entry): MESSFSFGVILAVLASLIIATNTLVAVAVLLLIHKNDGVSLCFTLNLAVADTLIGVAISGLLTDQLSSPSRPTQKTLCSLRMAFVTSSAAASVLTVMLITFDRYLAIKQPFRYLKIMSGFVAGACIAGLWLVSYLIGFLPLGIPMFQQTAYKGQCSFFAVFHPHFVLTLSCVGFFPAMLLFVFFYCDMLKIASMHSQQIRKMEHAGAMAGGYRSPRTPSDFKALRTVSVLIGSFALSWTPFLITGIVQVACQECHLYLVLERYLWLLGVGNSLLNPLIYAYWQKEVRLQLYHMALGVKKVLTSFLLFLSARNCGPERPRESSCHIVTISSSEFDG
ASSAY_INFO: Functional cellular assay measuring GPR119-mediated cAMP release (HTRF) in HEK-293 cells stably expressing recombinant human GPR119
CONDITION_LABEL: cAMP response, cell line expressing human GPR119, 30 minutes at room temperature
# strict inequality: EC50 < 200 nM yields y, everything else yields n

Below are worked cases with known answers.
{"ENTRY_SMILES": "CN(C)C(=O)CN1Cc2ccc(N3CC[C@@H](Oc4cnc(OCC5CC5)c(Br)c4)C3=O)cc2C1=O", "GROUP": "y"}
{"ENTRY_SMILES": "CC(C)Sc1ccc(O[C@@H]2CCN(c3ccc4c(c3)C(=O)N(CC(=O)N(C)C)C4)C2=O)cn1", "GROUP": "y"}
{"ENTRY_SMILES": "C[S@+]([O-])CN1Cc2ncc(N3CC[C@@H](Oc4ccc(OCC(F)(F)F)nc4)C3=O)cc2C1=O", "GROUP": "y"}
{"ENTRY_SMILES": "CNC(=O)CN1Cc2c(F)cc(N3CC[C@@H](Oc4ccc(OCCC5CC5)nc4)C3=O)cc2C1=O", "GROUP": "y"}
{"ENTRY_SMILES": "CN(C)C(=O)CN1Cc2ccc(N3CC[C@@H](Oc4ccc(OCC(F)(F)F)cc4)C3=O)cc2C1=O", "GROUP": "y"}
{"ENTRY_SMILES": "CS(=O)(=O)CN1Cc2ccc(N3CC[C@@H](Oc4ccc(C(=O)C5CC5)nc4)C3=O)cc2C1=O", "GROUP": "n"}

Continue with the next compound.
Exam item: Given the entry O=C(O)CN1Cc2ccc(N3CC[C@@H](Oc4ccc(OCC5CC5)nc4)C3=O)cc2C1=O , would its reported EC50 be below 200 nM?
Marked response: n
